Source: ChEMBL document CHEMBL1932984

# System: PC-3
# ASSAY: Cytotoxicity against human PC3 cells
# Assay type: functional, cell-based
Please note: IC50 exactly at 20 µM is NOT MET. Only values below 20 µM get MET.

>  <SMILES_TEXT>
COc1ccc(Cn2cc(/C=N\NC(=O)c3c[nH]c4ccccc34)c3ccccc32)cc1

>  <LABEL>
MET

$$$$
>  <SMILES_TEXT>
COc1ccc(Cn2cc(/C=N\NC(=O)c3c[nH]c4ccc(Br)cc34)c3ccc(F)cc32)cc1

>  <LABEL>
NOT MET

$$$$
>  <SMILES_TEXT>
COc1ccc(Cn2cc(/C=N\NC(=O)c3c[nH]c4ccc(Br)cc34)c3cc(OC)ccc32)cc1

>  <LABEL>
NOT MET

$$$$
>  <SMILES_TEXT>
O=C(N/N=C\c1cn(Cc2ccc(Cl)cc2)c2ccc(Br)cc12)c1c[nH]c2ccccc12

>  <LABEL>
MET

$$$$
